This collection of values is drawn from PubChem BioAssay AID686979.

# assay procedure: qHTS for Inhibitors of human tyrosyl-DNA phosphodiesterase 1 (TDP1): qHTS in cells in presence of CPT; also: nearly all actives have a fitted effect of over 55% in size
# measurement setup: chicken DT40 Tdp1-/-;hTDP1 cells + 20 nM CPT, ATP luminescence, 48 h; series mostly up to 46.2 µM
In all, about 420,000 compounds went through this assay and about 50,000 (12%) were called active. About 26% were inconclusive and are not listed. Calls follow the shape of the dose curve; as a rule, active = well fitted inhibition curve with a large enough effect; inconclusive = small, poorly fitted or top-dose-only effect; inactive = flat fitted curve, though single readings scatter. This excerpt belongs to a sample that is enriched for actives.
Entry note: the call must match one of class 1 (active), class 0 (inactive)

CC(=O)NCC(=O)N1CCCC(C(=O)c2ccc3c4c(cccc24)CC3)C1 (stereo unspecified)    class 0
CCc1nccn1CCC(=O)N1CCCC(N2CCN(c3ccccc3F)CC2)C1 (stereo unspecified)    class 0
CCOc1ccc(CN2CCCN(C)CC2)cc1    class 0
CCn1ccnc1CN1CCCC(C(=O)c2ccc3c4c(cccc24)CC3)C1 (stereo unspecified)    class 1
O=C(COC(=O)Cc1ccccc1F)NNC(=O)c1ccc(Cl)cc1    class 0

Qu. Given CC(=O)c1ccc(N2C(=NC(=O)C(C)C)SC3CS(=O)(=O)CC32)cc1 (stereo unspecified) , state the outcome it received in this test.
Ans. class 0

----------
# assay procedure: qHTS for Inhibitors of human tyrosyl-DNA phosphodiesterase 1 (TDP1): qHTS in cells in presence of CPT; also: nearly all actives have a fitted effect of over 55% in size
# measurement setup: chicken DT40 Tdp1-/-;hTDP1 cells + 20 nM CPT, ATP luminescence, 48 h; series mostly up to 46.2 µM
Out of some 420,000 compounds screened, about 50,000 (12%) were called active. About 26% were inconclusive and are not listed. Calls follow the shape of the dose curve; as a rule, active = well fitted inhibition curve with a large enough effect; inconclusive = small, poorly fitted or top-dose-only effect; inactive = flat fitted curve, though single readings scatter. For the sample, actives were picked, then their nearest neighbours and some compounds at random.
Entry note: the call must match one of active, inactive

Solved cases (6 shown):
Cc1cccc(NS(=O)(=O)c2ccc(C)c(C(=O)NCc3cccnc3)c2)c1    inactive
Cn1c2ccccc2n2c(=O)c(=O)n(CC(=O)c3ccc(F)cc3)nc12    inactive
O=C(CSc1ncn[nH]1)NCc1ccc2c(c1)OCO2    inactive
O=C(O)CCCCC(=O)O    inactive
Cc1cc(C(=O)N/N=C/c2ccc(N3CCOCC3)cc2)c(C)o1    inactive
COc1ccc(/C(C)=N\NC(=O)c2ccc(-c3ccccc3)cc2)c(F)c1    inactive

Qu. Given O=C(c1cc(-c2ccc(O)cc2)on1)N1CCOCC1 , state the outcome it received in this test.
Ans. inactive

Qu. Given Cc1ccn2c(=O)c(C(=O)NCCC3=CCCCC3)c(O)nc2c1 , state the outcome it received in this test.
Ans. active

----------
# assay procedure: qHTS for Inhibitors of human tyrosyl-DNA phosphodiesterase 1 (TDP1): qHTS in cells in presence of CPT; also: nearly all actives have a fitted effect of over 55% in size
# measurement setup: chicken DT40 Tdp1-/-;hTDP1 cells + 20 nM CPT, ATP luminescence, 48 h; series mostly up to 46.2 µM
About 50,000 (12%) of roughly 420,000 compounds were called active. Inconclusive results (about 26%) are left out. The full list was thinned out, with actives kept by preference.
measured quantity: outcome

Cn1c(=NC(=O)c2ccc3c(c2)OCCO3)sc2cc(S(C)(=O)=O)ccc21    inactive
O=C(COc1ccc([N+](=O)[O-])cc1Cl)Nc1ccc2[nH]c(=O)[nH]c2c1    inactive
CCCS(=O)(=O)N1CCCC(C(=O)N2CCN(c3ccccc3)CC2)C1 (stereo not given)    inactive
COc1ccccc1NC(=O)CN1C(=O)c2ccccc2Sc2ccc(C(=O)N3CCCC3)cc21    inactive

Lab note: next compound to report on.
# compound COc1ccccc1CC(=O)Nc1ccc(S(=O)(=O)N2CCCC2)cc1 ; its outcome = inactive
